Target: p110α/p85α (Homo sapiens (Human), UniProt P42336)
Sequence (P42336 whole entry, one chain of several): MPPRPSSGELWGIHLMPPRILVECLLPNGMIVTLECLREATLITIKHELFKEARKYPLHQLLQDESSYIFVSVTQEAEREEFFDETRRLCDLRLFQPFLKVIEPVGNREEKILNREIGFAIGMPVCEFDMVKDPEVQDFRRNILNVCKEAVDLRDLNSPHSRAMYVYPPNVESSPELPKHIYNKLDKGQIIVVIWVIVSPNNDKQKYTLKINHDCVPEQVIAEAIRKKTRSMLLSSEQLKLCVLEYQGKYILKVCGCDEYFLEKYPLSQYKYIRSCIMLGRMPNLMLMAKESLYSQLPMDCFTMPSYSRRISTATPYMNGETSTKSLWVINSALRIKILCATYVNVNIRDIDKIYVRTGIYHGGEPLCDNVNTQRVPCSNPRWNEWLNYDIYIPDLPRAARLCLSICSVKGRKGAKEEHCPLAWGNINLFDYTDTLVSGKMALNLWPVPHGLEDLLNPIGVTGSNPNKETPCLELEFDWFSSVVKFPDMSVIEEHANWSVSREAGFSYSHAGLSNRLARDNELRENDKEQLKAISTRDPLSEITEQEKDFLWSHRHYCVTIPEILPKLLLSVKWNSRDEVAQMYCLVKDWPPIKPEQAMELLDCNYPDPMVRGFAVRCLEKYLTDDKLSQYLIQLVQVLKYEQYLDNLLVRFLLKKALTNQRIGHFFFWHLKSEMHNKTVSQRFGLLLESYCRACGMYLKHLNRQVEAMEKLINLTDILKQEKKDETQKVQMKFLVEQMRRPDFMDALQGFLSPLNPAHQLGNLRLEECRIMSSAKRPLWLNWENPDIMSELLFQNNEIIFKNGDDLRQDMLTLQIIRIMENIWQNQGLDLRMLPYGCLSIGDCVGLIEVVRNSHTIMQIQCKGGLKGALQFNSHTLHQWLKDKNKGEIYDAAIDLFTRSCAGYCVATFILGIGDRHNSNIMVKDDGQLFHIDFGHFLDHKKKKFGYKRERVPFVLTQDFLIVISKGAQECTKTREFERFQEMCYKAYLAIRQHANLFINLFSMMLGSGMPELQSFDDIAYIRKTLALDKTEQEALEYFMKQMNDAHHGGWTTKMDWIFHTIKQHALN
Experiment: PI3K α inhibition assay (TLC lipid kinase or HTRF)
pIC50: −log10 of the molar value.
Measured quantity: pIC50

Check out these entries, answers already filled in.
CC(=O)Nc1nc2ccc(-c3nn(Cc4cc5ccccc5nc4N4CCN(C(C)C)CC4)c4ncnc(N)c34)cc2s1 | 6.00 to 7.00
CC(=O)Nc1nc2ccc(-c3nn(Cc4cc5ccccc5nc4OC(C)C)c4ncnc(N)c34)cc2s1 | < 6.00
CC(Nc1ncnc2[nH]cnc12)c1cc2ccccc2nc1N1CCN(C)CC1 (stereo not drawn) | < 6.00
CC1CCCN1c1nc2ccccc2cc1Cn1ncc2c(N)ncnc21 (stereo not drawn) | < 6.00
Cc1ccccc1-c1nc2ccccc2nc1Cn1nc(-c2cccc(O)c2)c2c(N)ncnc21 | < 6.00
Nc1nc2ccc(-c3nn(Cc4cc5ccccc5nc4N4CCCC4)c4ncnc(N)c34)cc2s1 [Compound 79] | > 7.00

Entry `CN1CCN(c2nc3ccccc3nc2Cn2nc(-c3ccc4nc(N)sc4c3)c3c(N)ncnc32)CC1` has what pIC50?
6.00 to 7.00

Entry `Nc1nc2ccc(-c3nn(Cc4cc5ccccc5nc4-c4ccccc4C(F)(F)F)c4ncnc(N)c34)cc2[nH]1` has what pIC50?
< 6.00

====

IC50 values for the compounds below.
Molecular target: p110α/p85α (Homo sapiens (Human), UniProt P42336)
Experiment: PI3K α inhibition assay (TLC lipid kinase or HTRF)
Type: biochemical

Check out these entries, answers already filled in.
Nc1nc2ccc(-c3nn(Cc4cc5ccccc5nc4CCN4CCCC4)c4ncnc(N)c34)cc2s1 | < 100 nM
Nc1nc2ccc(-c3nn(Cc4cc5ccccc5nc4-c4ccccc4F)c4ncnc(N)c34)cc2s1 | 100 to 1000 nM
Nc1ncnc2c1c(-c1cc(O)cc(F)c1)nn2Cc1cc2ccccc2nc1-c1ccccc1 | 100 to 1000 nM
Cn1c(=O)c(Cn2nc(-c3cccc(O)c3)c3c(N)ncnc32)cc2ccccc21 | > 1000 nM
Cc1ccccc1-c1nc2ccccc2nc1Cn1nc(-c2cc(O)cc(F)c2)c2c(N)ncnc21 | > 1000 nM

Entry `CC(C)N1CCN(c2nc3ccccc3cc2Cn2nc(-c3ccc4nc(N)sc4c3)c3c(N)ncnc32)CC1` has what IC50?
< 100 nM

====

pIC50 values for the molecules below.
Target: p110δ/p85α (Homo sapiens (Human), UniProt O00329)
Sequence (O00329 whole entry): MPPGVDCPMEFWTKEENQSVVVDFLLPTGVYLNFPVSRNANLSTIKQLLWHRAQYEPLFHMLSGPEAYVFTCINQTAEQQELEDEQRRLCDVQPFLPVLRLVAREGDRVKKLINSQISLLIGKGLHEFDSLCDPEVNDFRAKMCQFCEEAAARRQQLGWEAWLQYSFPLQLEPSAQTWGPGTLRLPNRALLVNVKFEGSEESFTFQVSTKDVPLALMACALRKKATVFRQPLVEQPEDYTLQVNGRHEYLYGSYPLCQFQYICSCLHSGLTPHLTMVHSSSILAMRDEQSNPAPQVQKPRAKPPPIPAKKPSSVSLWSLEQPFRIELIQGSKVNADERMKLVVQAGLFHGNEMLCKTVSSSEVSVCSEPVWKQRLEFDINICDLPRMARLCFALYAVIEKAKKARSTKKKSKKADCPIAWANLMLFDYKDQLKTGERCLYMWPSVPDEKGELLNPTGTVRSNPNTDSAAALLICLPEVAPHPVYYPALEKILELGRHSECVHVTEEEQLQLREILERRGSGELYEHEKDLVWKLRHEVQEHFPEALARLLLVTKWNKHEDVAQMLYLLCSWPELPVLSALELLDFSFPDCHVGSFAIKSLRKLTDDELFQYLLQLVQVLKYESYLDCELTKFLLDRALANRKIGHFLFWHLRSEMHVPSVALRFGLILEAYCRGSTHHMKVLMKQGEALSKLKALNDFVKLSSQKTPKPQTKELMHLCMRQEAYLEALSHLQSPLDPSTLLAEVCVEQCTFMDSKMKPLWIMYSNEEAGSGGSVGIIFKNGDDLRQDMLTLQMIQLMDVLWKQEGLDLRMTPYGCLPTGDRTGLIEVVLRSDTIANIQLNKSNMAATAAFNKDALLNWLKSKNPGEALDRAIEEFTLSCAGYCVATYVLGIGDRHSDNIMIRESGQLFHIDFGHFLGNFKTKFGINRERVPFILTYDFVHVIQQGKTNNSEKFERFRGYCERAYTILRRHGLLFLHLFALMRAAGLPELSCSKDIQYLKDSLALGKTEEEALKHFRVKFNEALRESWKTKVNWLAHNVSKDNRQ
Sequence (P27986 whole entry partner): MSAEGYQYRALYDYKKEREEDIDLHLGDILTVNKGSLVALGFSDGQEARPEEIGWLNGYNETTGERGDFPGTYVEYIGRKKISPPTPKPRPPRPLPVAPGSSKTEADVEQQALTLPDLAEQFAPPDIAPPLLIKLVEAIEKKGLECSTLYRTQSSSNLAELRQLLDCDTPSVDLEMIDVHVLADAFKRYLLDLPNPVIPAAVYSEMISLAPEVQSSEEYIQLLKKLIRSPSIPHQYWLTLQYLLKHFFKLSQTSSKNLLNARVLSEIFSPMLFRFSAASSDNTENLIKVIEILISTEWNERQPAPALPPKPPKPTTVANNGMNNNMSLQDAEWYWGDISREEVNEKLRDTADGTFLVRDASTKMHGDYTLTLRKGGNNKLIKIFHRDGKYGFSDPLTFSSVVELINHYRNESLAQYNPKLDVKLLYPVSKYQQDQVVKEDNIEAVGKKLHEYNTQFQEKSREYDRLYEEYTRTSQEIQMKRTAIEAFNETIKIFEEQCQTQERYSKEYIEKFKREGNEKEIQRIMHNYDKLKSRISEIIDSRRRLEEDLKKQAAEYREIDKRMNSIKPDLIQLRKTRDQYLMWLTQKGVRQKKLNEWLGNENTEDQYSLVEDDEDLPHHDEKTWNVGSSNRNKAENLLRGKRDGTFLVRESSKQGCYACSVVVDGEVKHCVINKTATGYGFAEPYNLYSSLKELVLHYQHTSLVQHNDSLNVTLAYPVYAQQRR
Assay: PI3K δ inhibition assay (TLC lipid kinase or HTRF)
pIC50: −log10 of the molar value.

CCC(c1cc2ccccc2nc1-c1ccccc1)n1cnc2c(N)ncnc21 (stereo not drawn) | < 6.00
Nc1nc2ccc(-c3nn(Cc4cc5ccccc5nc4-c4ccccc4)c4ncnc(N)c34)cc2s1 | > 7.00
CC1CCCN1c1nc2ccccc2cc1Cn1nc(-c2ccc3nc(N)sc3c2)c2c(N)ncnc21 (stereo not drawn) | > 7.00
Cc1ccccc1-c1nc2ccccc2cc1Cn1nc(-c2cc(O)cc(F)c2)c2c(N)ncnc21 | > 7.00

Now for the molecule whose pIC50 we want.
Entry `Cc1cccc2cc(Cn3nc(-c4cc(O)cc(F)c4)c4c(N)ncnc43)c(N3CCOCC3)nc12` has what pIC50?
> 7.00

====

Target: p110β/p85α (Homo sapiens, UniProt P42338)
Sequence (P42338 whole entry, looked up): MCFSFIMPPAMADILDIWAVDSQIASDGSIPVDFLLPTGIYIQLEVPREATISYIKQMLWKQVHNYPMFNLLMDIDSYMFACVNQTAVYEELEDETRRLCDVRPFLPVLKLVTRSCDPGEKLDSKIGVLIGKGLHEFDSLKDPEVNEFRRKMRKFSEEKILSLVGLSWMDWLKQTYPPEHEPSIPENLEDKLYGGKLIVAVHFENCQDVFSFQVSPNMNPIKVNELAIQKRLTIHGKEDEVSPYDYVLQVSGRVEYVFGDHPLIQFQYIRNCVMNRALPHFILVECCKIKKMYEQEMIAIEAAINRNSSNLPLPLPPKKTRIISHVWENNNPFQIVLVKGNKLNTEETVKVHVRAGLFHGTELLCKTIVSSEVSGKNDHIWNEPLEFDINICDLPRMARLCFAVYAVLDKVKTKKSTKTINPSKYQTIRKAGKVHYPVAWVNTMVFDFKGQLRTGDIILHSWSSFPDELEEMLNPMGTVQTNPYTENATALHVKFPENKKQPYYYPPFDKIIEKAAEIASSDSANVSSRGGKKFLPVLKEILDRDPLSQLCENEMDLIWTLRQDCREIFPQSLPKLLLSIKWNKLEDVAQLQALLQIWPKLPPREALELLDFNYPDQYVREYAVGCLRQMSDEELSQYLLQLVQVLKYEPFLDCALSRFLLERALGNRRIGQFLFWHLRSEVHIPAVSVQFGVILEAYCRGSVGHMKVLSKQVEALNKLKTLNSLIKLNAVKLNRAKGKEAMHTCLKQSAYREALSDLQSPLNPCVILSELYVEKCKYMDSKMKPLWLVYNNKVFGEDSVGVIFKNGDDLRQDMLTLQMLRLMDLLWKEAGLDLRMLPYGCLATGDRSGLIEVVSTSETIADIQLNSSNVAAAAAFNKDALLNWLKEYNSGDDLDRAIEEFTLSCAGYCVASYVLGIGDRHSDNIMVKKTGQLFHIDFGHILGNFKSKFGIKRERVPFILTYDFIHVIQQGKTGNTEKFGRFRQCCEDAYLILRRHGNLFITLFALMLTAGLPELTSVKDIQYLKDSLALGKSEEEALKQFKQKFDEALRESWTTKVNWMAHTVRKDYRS
Assay: PI3K β inhibition assay (TLC lipid kinase or HTRF)
Format: biochemical
Settings: read-out: PI3K β IC50
pIC50: −log10 of the molar value.
Measured quantity: pIC50

Check out these entries, answers already filled in.
CC(=O)Nc1nc2ccc(-c3nn(Cc4cc5ccccc5nc4N4CCN(C)CC4)c4ncnc(N)c34)cc2s1 | > 7.00
Nc1ncnc2c1c(-c1cccc(O)c1)nn2Cc1cc2ccccc2[nH]c1=O | < 6.00

Now for the compound whose pIC50 we want.
Entry `Nc1nc2cc(-c3nn(Cc4cc5ccccc5nc4N4CCCC4)c4ncnc(N)c34)ccc2[nH]1` has what pIC50?
6.00 to 7.00
